Target or system Mast/stem cell growth factor receptor Kit (Homo sapiens, UniProt P10721); metric IC50; compiled from varied reports.

In the examples that follow, each entry is paired with its recorded IC50.
{"columns": ["Molecule", "IC50"],
 "data": [
  ["Cn1cc(-c2cnc3[nH]cc(C(=O)c4c(F)ccc(NS(=O)(=O)C5CC5)c4F)c3c2)cn1", "≤ 10 µM"],
  ["CCCS(=O)(=O)Nc1ccc(F)c(C(=O)c2c[nH]c3ncc(-c4ccnc(F)c4)cc23)c1F", "≤ 10 µM"],
  ["Clc1ccc(CNc2ccc(Cc3c[nH]c4ncncc34)cn2)cc1", "≤ 10 µM"],
  ["Cn1cc(-c2cc(Oc3cc(F)c(NC(=O)c4c[nH]cc(-c5ccc(F)cc5)c4=O)cc3F)ccn2)cn1", "≤ 0.1 µM"],
  ["O=C(c1c(F)ccc(NS(=O)(=O)C2CC2)c1F)c1c[nH]c2ncc(-c3ccc(Cl)cc3)cc12", "≤ 10 µM"]
]}

Batch: IC50 for all items listed.
1. CC(=O)Nc1cccc(-c2cnc3[nH]ccc3c2)c1
2. O=C(CCCCCNC(=O)c1cc(Oc2ccc(NC(=O)Nc3ccc(Cl)c(C(F)(F)F)c3)cc2)ccn1)NO

≤ 10 µM
< 0.1 µM
